# assay_explanation: Pharmacokinetic study in normal and arthritic model rats after oral administration of APR extract (UPLC-MS/MS of plasma)
# experimental_parameters: Sprague-Dawley, rat, in vivo, po, 4.1 mL/kg, C max, normal rats, oral APR extract 4.1 mL/kg, plasma, mean ± SD, n = 6
measure_name: Cmax (ng/mL)
Numbers only here, please. The scale is ng/mL.

Documented Cmax of COc1c2occc2cc2ccc(=O)oc12 [Xanthotoxin, xanthotoxin] : 554

====

# assay_explanation: Pharmacokinetic study in normal and arthritic model rats after oral administration of APR extract (UPLC-MS/MS of plasma)
# experimental_parameters: Sprague-Dawley, rat, plasma, po, 4.1 mL/kg, t max, normal rats, oral APR extract 4.1 mL/kg, mean ± SD, n = 6
measure_name: Tmax (min)
Numbers only here, please. The scale is min.

Documented Tmax of O=C(C=Cc1ccc(O)c(O)c1)OC1CC(O)(C(=O)O)CC(O)C1O (stereo not shown) : 12

Documented Tmax of `O=c1ccc2cc3ccoc3cc2o1` : 480

Documented Tmax of `C/C=C(/C)C(=O)OC(C)(C)[C@@H]1Cc2c(ccc3ccc(=O)oc23)O1` : 13.8

Documented Tmax of `COc1c2ccoc2cc2oc(=O)ccc12` : 220

Documented Tmax of `O=C(/C=C/c1ccc(O)c(O)c1)O[C@H]1[C@H](O)C[C@](O)(C(=O)O)C[C@H]1O` : 25.2

Documented Tmax of `O=C(/C=C/c1ccc(O)c(O)c1)O[C@@H]1[C@H](O)C[C@@](O)(C(=O)O)C[C@H]1OC(=O)/C=C/c1ccc(O)c(O)c1` : 17.4

Documented Tmax of `CC(C)(O)[C@@H]1Cc2c(ccc3ccc(=O)oc23)O1` : 580
